Source listed as patent US5733931A.

# MEASURED_ON: ACAT enzyme of rabbit small intestine mucosa microsomes (Oryctolagus cuniculus, UniProt G1SFD9)
# Sequence (G1SFD9 1-524): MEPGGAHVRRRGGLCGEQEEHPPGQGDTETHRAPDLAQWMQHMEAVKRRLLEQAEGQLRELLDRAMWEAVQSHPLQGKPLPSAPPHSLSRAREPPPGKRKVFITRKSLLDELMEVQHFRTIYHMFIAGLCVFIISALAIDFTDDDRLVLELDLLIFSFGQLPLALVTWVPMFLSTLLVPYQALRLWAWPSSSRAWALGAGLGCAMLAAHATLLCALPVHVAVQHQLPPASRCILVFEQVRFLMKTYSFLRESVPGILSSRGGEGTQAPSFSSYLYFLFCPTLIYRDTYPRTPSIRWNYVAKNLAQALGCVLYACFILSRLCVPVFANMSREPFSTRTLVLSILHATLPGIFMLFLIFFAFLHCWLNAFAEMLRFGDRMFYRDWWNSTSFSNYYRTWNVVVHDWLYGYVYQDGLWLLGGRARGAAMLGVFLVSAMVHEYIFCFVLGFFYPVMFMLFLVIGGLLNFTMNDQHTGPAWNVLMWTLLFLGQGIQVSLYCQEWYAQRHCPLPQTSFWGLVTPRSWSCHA
Quick reference for IC50 among some compounds

COMPOUND | MEASURE_UNIT | IC50
CC1CCC(N(C[C@H]2CC[C@H](CN(C(=O)Nc3ccc(N(C)C)cc3)C3CCC(C)CC3)CC2)C(=O)Nc2ccc(N(C)C)cc2)CC1 (relative stereo) [Example 28] | nM | 30
CN(C)c1ccc(NC(=O)N(C[C@H]2CC[C@H](CN(C(=O)Nc3ccc(N(C)C)cc3)C3CCCCC3)CC2)C2CCCCC2)cc1 [Example 12-1] | nM | 29
O=C(Nc1ccc(N2CCCCC2)cc1)N(C[C@H]1CC[C@H](CN(C(=O)Nc2ccc(N3CCCCC3)cc2)C2CCCCC2)CC1)C1CCCCC1 [Example 13] | nM | 130
O=C(Nc1ccc(N2CCCC2)cc1)N(C[C@H]1CC[C@H](CN(C(=O)Nc2ccc(N3CCCC3)cc2)C2CCCCC2)CC1)C1CCCCC1 [Example 14-1] | nM | 140
CN(C)c1ccc(NC(=O)N(C[C@H]2CC[C@H](CN(C(=O)Nc3ccc(N(C)C)cc3)C3CCCCCC3)CC2)C2CCCCCC2)cc1 [Example 22] | nM | 18
CN(C)c1ccc(NC(=O)N(C[C@H]2CC[C@H](CN(C(=O)Nc3ccc(N(C)C)cc3)C3CCCCC3)CC2)C2CCCCC2)cc1 [Example 12] | nM | 24
O=C(Nc1ccc(N2CCCCCC2)cc1)N(C[C@H]1CC[C@H](CN(C(=O)Nc2ccc(N3CCCCCC3)cc2)C2CCCCC2)CC1)C1CCCCC1 [Example 14-2] | nM | 52
